# Tested on: SN12C
# test.description: NCI-60 one-dose screening
# Assay type: cell-based
# condition.details: Homo sapiens, Renal Cancer, read-out: GI (%)
# Experimental: Compounds 5a–c and 6a–o were tested using standard NCI protocols for in vitro activity at the National Cancer Institute (NCI, Bethesda, Maryland, USA), wherein compounds were tested using one single concentration of 10 μM against 60 cell lines of nine different cancer types. […] Excellent activity was observed against a single NSCLC cell line, EKVX, for compounds 5a–c (GIs = 77–86%, Table 1) with no observed activity for indoles with substituted vanillin 6a–o. […]
The entries below come with measured inhibition at 10 µM values attached.
# output: bare number, implied unit %

Looking up COc1ccc(COc2ccc(/C=C3/C(=O)Nc4cc(Cl)ccc43)cc2OC)cc1 , I see its inhibition at 10 µM listed as 4.32

* * *

# test.description: iCELLigence real-time cell analysis
# Type: cell-based, human
# condition.details: human, MCF-12A cells; MCF-12A; 50 μM; 48 h; relative to control; read-out: cell viability (% ± SEM)
readout.type: viability at 48 h, 50 µM
Express the reported value numerically, then name its unit.

Looking up COc1cc(C=C2C(=O)Nc3ccc(Cl)cc32)ccc1OCc1ccccn1 (mixture of isomers) [6j] , I see its viability at 48 h, 50 µM listed as 77.8%

* * *

# test.description: iCELLigence real-time cell analysis
# Format: cell-based, human
# condition.details: human, MCF-12A cells (non-tumorigenic mammary epithelial); MCF-12A; 50 μM; 72 h; relative to control; read-out: cell viability (% ± SEM)
readout.type: viability at 72 h, 50 µM (%)
# output: bare number, implied unit %

Looking up COc1cc(C=C2C(=O)Nc3ccc(Cl)cc32)ccc1OCc1ccccn1 (mixture of isomers) , I see its viability at 72 h, 50 µM listed as 72.7

* * *

# System: SW-620
# test.description: NCI-60 one-dose screening
# Assay type: cell-based
# condition.details: Homo sapiens, SW-620, Colon Cancer, read-out: GI (%)
The entries below come with measured inhibition at 10 µM values attached.
# output: bare number, implied unit %

# count of solved cases: 5
> print(dat)
                                   molecule  measurement
1  COc1ccc(COc2ccc(/C=C3/C(=O)Nc4cc(Cl)ccc43)cc2OC)cc1         3.63
2  COc1ccc(COc2ccc(/C=C3/C(=O)Nc4ccccc43)cc2OC)cc1         0.87
3  COc1cc(C=C2C(=O)Nc3ccc(Cl)cc32)ccc1OCc1ccccn1 (mixture of isomers)         2.21
4  COc1cc(C=C2C(=O)Nc3ccc(Cl)cc32)ccc1O (mixture of isomers)        -3.74
5  COc1ccc(COc2ccc(/C=C3/C(=O)Nc4ccc(Cl)cc43)cc2OC)cc1         6.24

For the molecule COc1cc(/C=C2/C(=O)Nc3cc(Cl)ccc32)ccc1O , the measured inhibition at 10 µM on SW-620 was 3.92

For the molecule COc1cc(C=C2C(=O)Nc3ccccc32)ccc1OCc1ccccn1 (mixture of isomers) , the measured inhibition at 10 µM on SW-620 was -0.45

For the molecule COc1cc(C=C2C(=O)Nc3ccccc32)ccc1OCc1ccccc1 (mixture of isomers) , the measured inhibition at 10 µM on SW-620 was 9.55

For the molecule COc1cc(/C=C2/C(=O)Nc3ccccc32)ccc1OCc1ccc(Cl)cc1 , the measured inhibition at 10 µM on SW-620 was 3.4

* * *

# test.description: iCELLigence real-time cell analysis
# Assay type: cell-based, human
# condition.details: human, MCF-12A cells (non-tumorigenic mammary epithelial); MCF-12A; 50 μM; 96 h; relative to control; read-out: cell viability (% ± SEM)
readout.type: viability at 96 h, 50 µM (%)
# output: bare number, implied unit %

Looking up COc1cc(C=C2C(=O)Nc3ccc(Cl)cc32)ccc1OCc1ccccn1 (mixture of isomers) , I see its viability at 96 h, 50 µM listed as 72.5

* * *

# test.description: iCELLigence real-time cell analysis
# Format: cell-based, human
# condition.details: human, MCF-12A cells; MCF-12A; 5 μM; 48 h; relative to control; read-out: cell viability (% ± SEM)
readout.type: viability at 48 h, 5 µM
Express the reported value numerically, then name its unit.

Looking up COc1cc(C=C2C(=O)Nc3ccc(Cl)cc32)ccc1OCc1ccccn1 (mixture of isomers) , I see its viability at 48 h, 5 µM listed as 93.7%

* * *

# Test system: COLO 205
# test.description: NCI-60 one-dose screening
# Type: cell-based
# condition.details: Homo sapiens, COLO 205, Colon Cancer, read-out: GI (%)
The entries below come with measured inhibition at 10 µM values attached.
# output: bare number, implied unit %

# count of solved cases: 5
> print(dat)
                                   compound  measurement
1  COc1cc(C=C2C(=O)Nc3ccc(Cl)cc32)ccc1OCc1ccccn1 (mixture of isomers)        -10.1
2  COc1cc(/C=C2/C(=O)Nc3ccccc32)ccc1OCc1ccc(Cl)cc1        -16.1
3  COc1cc(/C=C2/C(=O)Nc3ccc(Cl)cc32)ccc1OCc1ccccc1        -7.79
4  COc1ccc(COc2ccc(/C=C3/C(=O)Nc4cc(Cl)ccc43)cc2OC)cc1        -11.1
5  COc1cc(/C=C2/C(=O)Nc3cc(Cl)ccc32)ccc1OCc1ccc(F)cc1        -10.2

For the compound COc1cc(C=C2C(=O)Nc3ccccc32)ccc1O (mixture of isomers) , the measured inhibition at 10 µM on COLO 205 was -13.8

For the compound COc1cc(/C=C2/C(=O)Nc3cc(Cl)ccc32)ccc1OCc1ccccc1 , the measured inhibition at 10 µM on COLO 205 was -16.6

For the compound COc1cc(C=C2C(=O)Nc3ccccc32)ccc1OCc1ccccc1 (mixture of isomers) , the measured inhibition at 10 µM on COLO 205 was -17.8

For the compound COc1cc(C=C2C(=O)Nc3ccccc32)ccc1OCc1ccccn1 (mixture of isomers) , the measured inhibition at 10 µM on COLO 205 was -16

For the compound COc1cc(C=C2C(=O)Nc3ccc(Cl)cc32)ccc1O (mixture of isomers) , the measured inhibition at 10 µM on COLO 205 was -11.7

For the compound COc1ccc(COc2ccc(/C=C3/C(=O)Nc4ccccc43)cc2OC)cc1 , the measured inhibition at 10 µM on COLO 205 was -22.9

For the compound COc1cc(/C=C2/C(=O)Nc3cc(Cl)ccc32)ccc1O , the measured inhibition at 10 µM on COLO 205 was -7.08

For the compound COc1cc(C=C2C(=O)Nc3ccc(Cl)cc32)ccc1OCc1ccc(F)cc1 (mixture of isomers) , the measured inhibition at 10 µM on COLO 205 was 6.56

For the compound COc1cc(C=C2C(=O)Nc3cc(Cl)ccc32)ccc1OCc1ccc(Cl)cc1 (mixture of isomers) , the measured inhibition at 10 µM on COLO 205 was -13.1

For the compound COc1cc(C=C2C(=O)Nc3ccc(Cl)cc32)ccc1OCc1ccc(Cl)cc1 (mixture of isomers) , the measured inhibition at 10 µM on COLO 205 was -7.05

For the compound COc1cc(/C=C2/C(=O)Nc3ccccc32)ccc1OCc1ccc(F)cc1 , the measured inhibition at 10 µM on COLO 205 was -11.2

For the compound COc1cc(/C=C2/C(=O)Nc3cc(Cl)ccc32)ccc1OCc1ccccn1 , the measured inhibition at 10 µM on COLO 205 was -18.8

For the compound COc1ccc(COc2ccc(/C=C3/C(=O)Nc4ccc(Cl)cc43)cc2OC)cc1 , the measured inhibition at 10 µM on COLO 205 was -10.1

* * *

# test.description: iCELLigence real-time cell analysis
# Format: cell-based, human
# condition.details: human, MCF-12A cells (non-tumorigenic mammary epithelial); MCF-12A; 20 μM; 96 h; relative to control; read-out: cell viability (% ± SEM)
The entries below come with measured viability at 96 h, 20 µM values attached.
# output: bare number, implied unit %

> print(dat)
                                   molecule              readout.type  unit.spec  measurement
1  COc1cc(C=C2C(=O)Nc3ccc(Cl)cc32)ccc1OCc1ccccn1 (mixture of isomers) [6j]  viability at 96 h, 20 µM          %         80.6

Looking up CC/C(=C(\c1ccccc1)c1ccc(OCCN(C)C)cc1)c1ccccc1 [tamoxifen, reference compound] , I see its viability at 96 h, 20 µM listed as 84

* * *

# System: A549/ATCC
# test.description: NCI-60 one-dose screening
# Assay type: cell-based
# condition.details: Homo sapiens, Non-Small Cell Lung Cancer, read-out: GI (%)
readout.type: inhibition at 10 µM (%)
# output: bare number, implied unit %

Looking up COc1cc(/C=C2/C(=O)Nc3ccc(Cl)cc32)ccc1OCc1ccccc1 , I see its inhibition at 10 µM listed as -0.72

These data points were gathered from paper PMC9948168.
